Molecular target: human TLR9 (Homo sapiens, UniProt Q9NR96)
Construct: HA; host or cells: 293XL-hTLR9-HA (HEK293)
Sequence (Q9NR96 26-1032): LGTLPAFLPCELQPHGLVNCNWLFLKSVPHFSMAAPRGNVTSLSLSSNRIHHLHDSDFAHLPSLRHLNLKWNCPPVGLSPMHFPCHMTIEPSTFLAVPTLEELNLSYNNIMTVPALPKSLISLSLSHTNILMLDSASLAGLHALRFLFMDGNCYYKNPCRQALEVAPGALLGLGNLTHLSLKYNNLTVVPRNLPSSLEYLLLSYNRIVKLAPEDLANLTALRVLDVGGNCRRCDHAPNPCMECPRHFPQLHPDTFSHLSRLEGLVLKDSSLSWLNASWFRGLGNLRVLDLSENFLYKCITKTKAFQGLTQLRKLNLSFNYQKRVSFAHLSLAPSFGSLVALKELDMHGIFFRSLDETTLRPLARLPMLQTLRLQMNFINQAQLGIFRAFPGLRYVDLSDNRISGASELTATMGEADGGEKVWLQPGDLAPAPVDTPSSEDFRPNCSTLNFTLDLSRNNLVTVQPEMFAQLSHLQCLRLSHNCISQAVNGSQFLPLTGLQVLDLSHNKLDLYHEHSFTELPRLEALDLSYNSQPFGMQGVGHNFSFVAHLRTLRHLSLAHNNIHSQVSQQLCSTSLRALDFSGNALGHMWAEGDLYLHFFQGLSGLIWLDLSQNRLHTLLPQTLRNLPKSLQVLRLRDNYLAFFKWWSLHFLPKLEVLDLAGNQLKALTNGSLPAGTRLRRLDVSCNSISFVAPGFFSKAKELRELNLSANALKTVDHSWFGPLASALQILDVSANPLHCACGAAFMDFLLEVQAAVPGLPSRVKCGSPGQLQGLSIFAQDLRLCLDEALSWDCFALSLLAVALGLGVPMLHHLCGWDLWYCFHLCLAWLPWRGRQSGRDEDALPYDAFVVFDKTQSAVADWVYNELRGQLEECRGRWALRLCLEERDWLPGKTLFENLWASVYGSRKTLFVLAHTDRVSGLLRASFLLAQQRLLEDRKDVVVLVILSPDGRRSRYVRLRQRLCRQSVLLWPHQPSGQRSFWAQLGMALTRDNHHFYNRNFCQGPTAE
Assay: HEK-TLR9 NF-κB-luciferase reporter, ODN2006 stimulation
Format: cell-based
Details: ASO 100 nM; relative to ODN2006 only, given as fraction
Classification field: Condition met = TLR9 100 nM (averaged NF-κB-Luciferase level relative to ODN2006 condition) at or over 0.8; Condition not met = TLR9 100 nM (averaged NF-κB-Luciferase level relative to ODN2006 condition) under 0.8.

Take a look at these entries with their results.
ACACTTCGTGGGGTCC (antisense; LNA-modified, pattern not given here) [HPRT LNA-665 V1]
Condition not met
AACCCCTTTCACCATC (antisense; LNA-modified, pattern not given here) [MB21D1-689 LNA KL]
Condition not met
AGATTTCAGAGCAGCT (antisense; LNA-modified, pattern not given here) [EGFR-4885 LNA KL]
Condition met

Pending sequence:
input: Decide: is the reported value of TLR9 100 nM (averaged NF-κB-Luciferase level relative to ODN2006 condition) for GTCTCTGGAGCTTCCT (antisense; LNA-modified, pattern not given here) [CAMSAP1-2456 LNA V1] equal to or greater than 0.8?
output: Condition met
